Test system: rice (Oryza sativa)
Assay: Test B flooded paddy test, visual plant response rating
Format: in vivo
Details: 250 g ai/ha; applied to paddy water at 2-leaf stage; rated after 13 to 15 days; scale 0 to 100, 0 is no effect, 100 is complete control
measured_attribute: Plant response rating, Flood, Rice

[[record]]
compound = "CCc1ccc(C2Cn3c(C)nnc3C2C(=O)Nc2ccccc2SC)cc1 (stereo not drawn)"
measured_result = 20

[[record]]
compound = "O=C(Nc1ccccc1F)C1C2=NCCCN2CC1c1cccc(C(F)(F)F)c1 (stereo not drawn)"
measured_result = 0

[[record]]
compound = "CSc1ccccc1NC(=O)C1c2nncn2CC1c1ccc(C)c(C)c1 (stereo not drawn)"
measured_result = 0

[[record]]
compound = "Cc1ccc(C2Cn3c(C)nnc3C2C(=O)Nc2cccc(F)c2F)cc1C (stereo not drawn)"
measured_result = 0

[[record]]
compound = "Cc1nnc2n1CC(c1ccc(C(F)(F)F)cc1)C2C(=O)Nc1ccccc1F (stereo not drawn)"
measured_result = 0

[[record]]
compound = "CCc1nnc2n1CC(c1ccc(C(F)(F)F)cc1)C2C(=O)Nc1cccc(F)c1F (stereo not drawn)"
measured_result = 0

[[record]]
compound = "Cc1ccc(C2Cn3cnnc3C2C(=O)Nc2cccc(F)c2C)cc1C (stereo not drawn)"
measured_result = 20

[[record]]
compound = "O=C(Nc1ccccc1F)C1c2nncn2CC1c1ccc(Cl)cc1 (stereo not drawn)"
measured_result = 0

[[record]]
compound = "Cc1ccc(C2Cn3c(C)nnc3C2C(=O)Nc2ccccc2F)cc1 (stereo not drawn)"
measured_result = 0

[[record]]
compound = "O=C(Nc1cccc(F)c1F)C1c2nnc(C(F)(F)F)n2CC1c1ccc(C(F)(F)F)cc1 (stereo not drawn)"
measured_result = 0

[[record]]
compound = "CCc1ccc(C2Cn3c(C)nnc3C2C(=O)Nc2cccc(F)c2C)cc1 (stereo not drawn)"
measured_result = 15

[[record]]
compound = "O=C(Nc1cccc(F)c1F)C1c2nncn2CC1c1ccc(C(F)(F)F)cc1 (stereo not drawn)"
measured_result = 0

[[record]]
compound = "Cc1ccc(C2Cn3c(C)nnc3C2C(=O)Nc2cccc(F)c2C)cc1C (stereo not drawn)"
measured_result = 0

[[record]]
compound = "Cc1ccc(C2Cn3cnnc3C2C(=O)Nc2cccc(F)c2F)cc1C (stereo not drawn)"
measured_result = 15

[[record]]
compound = "CCc1ccc(C2Cn3cnnc3C2C(=O)Nc2cccc(F)c2C)cc1 (stereo not drawn)"
measured_result = 20

[[record]]
compound = "CCc1ccc(C2Cn3c(C)nnc3C2C(=O)Nc2cccc(F)c2F)cc1 (stereo not drawn)"
measured_result = 0

[[record]]
compound = "CSc1ccccc1NC(=O)C1c2nnc(C)n2CC1c1ccc(C)c(C)c1 (stereo not drawn)"
measured_result = 0

[[record]]
compound = "CCCc1nnc2n1CC(c1ccc(C(F)(F)F)cc1)C2C(=O)Nc1cccc(F)c1F (stereo not drawn)"
measured_result = 0

